Origin of values: patent US20250250357A1

So I've got a bunch of binders here, and I need their OD450 values.
target: T1, human MSLN-R2-his protein (human, UniProt Q13421 391-486); assay: ELISA on coated antigen, antibody 100 nM
T1 construct: Self-made in HEK293E cells; also called human MSLN-R2 protein; hMSLN-R2-his; not shown: His tag
T1 sequence (Q13421 other isoform, or with tags, fused parts or gaps): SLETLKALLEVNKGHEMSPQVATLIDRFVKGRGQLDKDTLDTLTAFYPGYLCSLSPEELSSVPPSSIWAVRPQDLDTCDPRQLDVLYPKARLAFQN
Give a bare numeral; the unit OD450 is implied.

Exercise: // query OD450 value for entry S009-F2-56.12 (antibody, human IgG1, kappa, V domains shown, Human-murine chimeric antibody: murine VH/VL on human IgG1 heavy and kappa light constant regions) VH: DVQLQESGPGMVKPSQSLSLTCTVTGYSITSGYDWHWIRHFPGNKLEWMGYISYSGSTNYNPSLKSRISITHDTSKNHFFLKLKSVTTEDTATYYCARGTGPDYWGQGTTLTVSS VL: DIVMTQSQKFMSTSVGDRVSITCKASQNVRTAVAWYQQKPGQSPKALIHLPSNRHTGVPDRFTGSGSGTDFTLTISNVQSEDLADYFCLQHWNYPLTFGGGTKLEIKR
Solution: 0.17

Exercise: And then S009-F2.16.10 (antibody, human IgG1, kappa, V domains shown, Human-murine chimeric antibody: murine VH/VL on human IgG1 heavy and kappa light constant regions) VH: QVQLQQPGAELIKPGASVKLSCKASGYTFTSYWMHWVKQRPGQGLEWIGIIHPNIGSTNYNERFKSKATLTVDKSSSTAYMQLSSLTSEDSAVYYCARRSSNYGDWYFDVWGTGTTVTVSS VL: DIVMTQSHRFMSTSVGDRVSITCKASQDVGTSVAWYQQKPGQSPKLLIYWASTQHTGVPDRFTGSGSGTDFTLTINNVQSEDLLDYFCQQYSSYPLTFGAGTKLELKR , what is it?
Solution: 0.05

Exercise: And then S009-F2.21.4 (antibody, human IgG1, kappa, V domains shown, Human-murine chimeric antibody: murine VH/VL on human IgG1 heavy and kappa light constant regions) VH: EVQLQQSGPELVKPGASVKIPCKASGYTFTDYNMDWVKQSHGKSLEWIGDINPNNGGSIYNQRFKGKATLTVDKSSSTAYMELRSLTSEDSAVYYCARRAYYSTGYFDVWGTGTTVTVSS VL: QIVLTQSPALMSASPGEKVTITCSASSSISYMHWFQQKPGTSPKLWIYSTSTLASGVPARFSGSGSGTSYSLTISRMEAEDTATYYCQQRSSYPPTFGGGTKLEIKR , what is it?
Solution: 0.06
